# assay-name: Selectivity index, ratio of IC50 for cytotoxicity against African green monkey Vero E6 cells to MIC50 for antimycobacterial activity against Mycobacterium bovis BCG ATCC 35734
# Format: toxicity, cell-based, Vero C1008
# recorded-conditions: read-out: Selectivity Index

{"columns": ["structure-smiles-string", "bound-sign", "selectivity ratio"],
 "data": [
  ["O=C(NC1CCCCCCC1)c1cc2ccc(C(F)(F)F)cc2[nH]1", ">", 5000],
  ["FC(F)(F)c1ccc2cc(CNC3CCCCCCC3)[nH]c2c1", "=", 550]
]}

###

# assay-name: Effective permeability coefficient of the compound at 500 uM incubated for 18 hrs under agitation condition by PAMPA assay
# Format: ADME
# recorded-conditions: PAMPA, read-out: Peff
Tick true if Papp at 18 h, 500 µM is 10 ×10⁻⁶ cm/s or greater. Tick false if Papp at 18 h, 500 µM is less than 10 ×10⁻⁶ cm/s.

{"columns": ["compound", "class"],
 "data": [
  ["O=C(NC1CCCCCCC1)c1cc2ccc(Br)cc2[nH]1", "false"],
  ["Cc1cc(C)c2cc(CNC3CCCCCCC3)[nH]c2c1", "true"],
  ["FC(F)(F)c1ccc2cc(CNC3CCCCCCC3)[nH]c2c1", "true"],
  ["CC(C)NCC(O)COc1cccc2ccccc12 (stereo unspecified)", "true"],
  ["Brc1ccc2cc(CNC3CCCCCCC3)[nH]c2c1", "true"],
  ["O=C(NC1CCCCCCC1)c1cc2ccc(C(F)(F)F)cc2[nH]1", "false"]
]}
